Source: PubChem BioAssay AID1159580

protocol: chemical genetic growth profiling, strain panel (AID 1159580);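 note: tested at 20 µM; growth read once vehicle control cultures reached saturation at 30 °C; 1 = growth at the plate median or of vehicle wells; lower values mean less growth of the strain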
applied_conditions: S. cerevisiae deletion strains, growth OD, locus YML124C, strain tub3, stronger effect = lower value
About 2,000 (36%) of roughly 5,500 compounds were called active. Not shown: some 18% with an inconclusive outcome. The list shows a part of the results.
measured_parameter: normalized growth
Could you keep your reply to the number by itself?

[[record]]
molecule = "CNCCc1ccccn1"
measured_parameter = "normalized growth"
reading = 1.01

[[record]]
molecule = "COc1ccc2c(c1OC)C(=O)O[C@H]2[C@H]1c2cc3c(cc2CCN1C)OCO3"
measured_parameter = "normalized growth"
reading = 1.01

[[record]]
molecule = "COc1ccc2cc([C@H](C)C(=O)O)ccc2c1"
measured_parameter = "normalized growth"
reading = 0.992


## Input // query normalized growth value for entry S=c1nc[nH]c2nc[nH]c12
## Output 0.989

## Input // query normalized growth value for entry CCC(C)C(=O)O[C@H]1[C@H](O)C2C(CN3CC(C)CCC3[C@@]2(C)O)C2C[C@]34O[C@]5(O)C(OC(=O)C(C)(O)C(C)O)CC[C@@]3(C)C5C(OC(C)=O)[C@@H](OC(C)=O)C4[C@@]21O (stereo partly drawn)
## Output 0.996

## Input // query normalized growth value for entry O=C1C=CC(=C(c2ccc(O)cc2)c2ccc(O)cc2)C=C1
## Output 0.983

## Input // query normalized growth value for entry CCCCNc1cc(C(=O)O)cc(S(N)(=O)=O)c1Oc1ccccc1
## Output 0.974

## Input // query normalized growth value for entry C=C1C([C@]2(C)C(CC(=O)OC)[C@@](C)(COC(C)=O)OC(=O)C[C@@H]2OC(C)=O)[C@@H](OC=O)[C@H](OC(=O)C(O)C(C)CC)[C@@]2(C)[C@H](c3ccoc3)CC(=O)C12O (stereo partly drawn)
## Output 1.01

## Input // query normalized growth value for entry CCOC(=O)CCC(=O)O[C@H]1[C@H](O[C@@H]2[C@@H](C)[C@H](O[C@H]3C[C@@](C)(OC)[C@@H](O)[C@H](C)O3)[C@@H](C)C(=O)O[C@H](CC)[C@@](C)(O)[C@H](O)[C@@H](C)C(=O)[C@H](C)C[C@@]2(C)O)O[C@H](C)C[C@@H]1N(C)C
## Output 0.988

## Input // query normalized growth value for entry COc1cc(NS(=O)(=O)c2ccc(N)cc2)nc(OC)n1
## Output 0.988

## Input // query normalized growth value for entry COc1cc2c(cc1OC)[C@@H]1C(=O)c3ccc(O)c(CC=C(C)C)c3O[C@@H]1CO2
## Output 0.989

## Input // query normalized growth value for entry CCOC(=O)C(C)(C)Oc1ccc(Cl)cc1
## Output 0.998

## Input // query normalized growth value for entry c1cncc(C2CCCCN2)c1 (stereo not drawn)
## Output 0.998
